EC50 values for the molecules below.
- system.name: human 5-HT2C receptor (Homo sapiens)
- Sequence (P28335 33-458): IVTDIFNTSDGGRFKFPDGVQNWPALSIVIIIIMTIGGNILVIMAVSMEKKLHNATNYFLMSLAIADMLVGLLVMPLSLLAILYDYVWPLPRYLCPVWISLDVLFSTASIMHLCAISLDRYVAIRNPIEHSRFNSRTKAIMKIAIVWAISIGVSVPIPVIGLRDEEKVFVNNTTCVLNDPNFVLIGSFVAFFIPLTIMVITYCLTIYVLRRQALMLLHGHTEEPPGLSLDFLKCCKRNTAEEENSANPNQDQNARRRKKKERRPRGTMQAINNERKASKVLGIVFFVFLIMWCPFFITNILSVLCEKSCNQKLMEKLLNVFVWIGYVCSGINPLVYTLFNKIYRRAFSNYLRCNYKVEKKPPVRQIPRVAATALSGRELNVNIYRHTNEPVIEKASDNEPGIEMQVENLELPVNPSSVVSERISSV
- method.summary: 5-HT2C receptor-stimulated calcium mobilization (FLIPR) in CHO cells;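 further: Fluo-3-AM fluorescence read on FLIPR every 1 s, agonist added after 10 baseline reads, response taken as peak minus lowest raw fluorescence count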
- Assay type: cell-based
- measurement.conditions: calcium mobilization, CHO cells stably expressing human 5-HT2C; read-out: 5-HT2C Function EC50

Enquiry: Name the reported EC50 value associated with the molecule COc1cccc(-c2cc(C)cc3c2OC(CN)C3)c1OC (single isomer, unassigned; (+)) [Example 296]
Return: 50 nM

More entries:
Enquiry: Name the reported EC50 value associated with the molecule COc1ccc(-c2cc(C(F)(F)F)cc3c2OC(CN)C3)cc1 (racemic)
Return: 228 nM

Enquiry: Name the reported EC50 value associated with the molecule NCC1Cc2cc(Cl)cc(-c3ccc(Cl)cc3Cl)c2O1 (single isomer, unassigned; (+)) [Example 253]
Return: 251 nM

Enquiry: Name the reported EC50 value associated with the molecule Cc1cccc(C)c1-c1cc(Cl)cc2c1OC(CN)C2 (single isomer, unassigned; (-)) [Example 261]
Return: 67 nM

Enquiry: Name the reported EC50 value associated with the molecule Cc1c(Cl)cc(C(C)C)c2c1CC(CN)O2 (racemic) [Example 21]
Return: 86 nM

Enquiry: Name the reported EC50 value associated with the molecule NCC1Cc2cc(F)cc(-c3ccoc3)c2O1 (racemic)
Return: 336 nM

Enquiry: Name the reported EC50 value associated with the molecule CCNCC1Cc2cccc(-c3c(Cl)cccc3Cl)c2O1 (racemic)
Return: 2 nM
